# measurement.target: human GCG receptor (human, UniProt P47871 26-477)
# Sequence (P47871 26-477): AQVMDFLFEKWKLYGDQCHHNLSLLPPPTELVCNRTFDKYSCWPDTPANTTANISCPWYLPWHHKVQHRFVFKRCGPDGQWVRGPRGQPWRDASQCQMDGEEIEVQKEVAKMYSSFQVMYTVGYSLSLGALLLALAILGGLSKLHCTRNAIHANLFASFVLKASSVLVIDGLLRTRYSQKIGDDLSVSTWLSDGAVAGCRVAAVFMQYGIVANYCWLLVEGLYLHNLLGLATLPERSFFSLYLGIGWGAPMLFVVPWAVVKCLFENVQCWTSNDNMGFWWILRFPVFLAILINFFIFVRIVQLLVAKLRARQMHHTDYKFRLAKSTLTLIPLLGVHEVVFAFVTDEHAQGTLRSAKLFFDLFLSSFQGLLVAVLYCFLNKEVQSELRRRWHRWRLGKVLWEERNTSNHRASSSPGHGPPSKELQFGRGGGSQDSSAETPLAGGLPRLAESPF
# protocol.text: cell-based or functional assay
Bridges are numbered along the chain shown (N, C = ends). Where no end group is shown, it is not given here. [ ]: non-standard residue; d: D form. The star is where a group is joined. Acetyl(2-(4-imidazolyl)) = O=C(Cc1c[nH]cn1)*; Aib = CC(C)(N)C(=O)O
Examples of binders with documented In vitro activity compared with native peptide (%) vs. Glucagon follow.

# count of solved cases: 4
{Acetyl(2-(4-imidazolyl))}-[Aib]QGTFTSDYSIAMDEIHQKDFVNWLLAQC (bridge 15-19) [Triple agonist of SEQ ID NO: 85] | < 0.1%
H[Aib]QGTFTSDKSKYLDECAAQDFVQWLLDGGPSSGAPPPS [Triple agonist of SEQ ID NO: 41] | < 0.1%
H[Aib]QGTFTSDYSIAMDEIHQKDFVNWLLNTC (bridge 16-20) [Triple agonist of SEQ ID NO: 57] | < 0.1%
{Acetyl(2-(4-imidazolyl))}-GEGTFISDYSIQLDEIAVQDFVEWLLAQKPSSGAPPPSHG [Triple agonist of SEQ ID NO: 13] | < 0.1%

// In vitro activity compared with native peptide (%) vs. Glucagon lookup, key: Y[Aib]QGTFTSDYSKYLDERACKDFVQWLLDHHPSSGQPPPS (bridge 16-20) [Triple agonist of SEQ ID NO: 71] 12.7%
